test system: relapsed AML cells; assay: Drug sensitivity assay, 1,536-well, 3-day culture with individual approved drugs at 10 μM, viability by alamarBlue; format: cell-based, human; conditions: number of relapsed AML cases out of 18 tested with >70% cell death; 10 μM, 3-day culture
quantity.name: #Cases >70% cell death
Please reply with the number alone, leaving off any unit.

Some molecules with known #Cases >70% cell death results, for comparison:
molecule="CCCCC(CC)COC(=O)C(C#N)=C(c1ccccc1)c1ccccc1 (stereo not shown) [OCTOCRYLENE]" quantity_name="#Cases >70% cell death" readout_number=1
molecule="CC[C@]1(O)C[C@@H]2CN(CCc3c([nH]c4ccccc34)[C@@](C(=O)OC)(c3cc4c(cc3OC)N(C)[C@H]3[C@@](O)(C(=O)OC)[C@H](OC(C)=O)[C@]5(CC)C=CCN6CC[C@]43[C@@H]65)C2)C1 [VINBLASTINE]" quantity_name="#Cases >70% cell death" readout_number=14
molecule="CNC(=O)c1cc(Oc2ccc(NC(=O)Nc3ccc(Cl)c(C(F)(F)F)c3)cc2)ccn1 [SORAFENIB]" quantity_name="#Cases >70% cell death" readout_number=9
molecule="CC(C)(C)C(=O)C(Oc1ccc(Cl)cc1)n1ccnc1 (stereo not shown) [CLIMBAZOLE]" quantity_name="#Cases >70% cell death" readout_number=1
molecule="CC(C)CC(=O)Nc1n[nH]c2c1CN(C(=O)C1CCN(C)CC1)C2(C)C [PHA-793887]" quantity_name="#Cases >70% cell death" readout_number=16
molecule="Nc1nc2nc[nH]c2c(=S)[nH]1 [TIOGUANINE (6-thioguanine), TIOGUANINE]" quantity_name="#Cases >70% cell death" readout_number=16

Pending molecule:
Query string: Consider the molecule CCOC(=O)/C=C(C)/C=C/C=C(C)/C=C/c1c(C)cc(OC)c(C)c1C [ETRETINATE] and give its measured #Cases >70% cell death.
Result string: 1

* * *

test system: relapsed AML cells; experiment: Drug sensitivity assay, 1,536-well, 3-day culture with individual approved drugs at 10 μM, viability by alamarBlue; assay type: cell-based, human; conditions: number of relapsed AML cases out of 18 tested with >70% cell death; 10 μM, 3-day culture
quantity.name: #Cases >70% cell death
Please reply with the number alone, leaving off any unit.

compound="C/C=C(\\C)C(=O)N[C@@H](c1ccccc1)[C@@H](O)C(=O)O[C@H]1C[C@@]2(O)[C@@H](OC(=O)c3ccccc3)[C@@H]3[C@]4(OC(C)=O)CO[C@@H]4C[C@H](O)[C@@]3(C)C(=O)[C@H](OC(C)=O)C(=C1C)C2(C)C [CEPHALOMANNINE]" quantity_name="#Cases >70% cell death" readout_number=7
compound="OC(CN1CCC(Cc2ccc(F)cc2)CC1)c1ccc(Cl)cc1 (stereo not drawn) [ELIPRODIL]" quantity_name="#Cases >70% cell death" readout_number=1

Pending compound:
Query string: Consider the compound CN(c1ncccc1CNc1nc(Nc2ccc3c(c2)CC(=O)N3)ncc1C(F)(F)F)S(C)(=O)=O [PF-562271] and give its measured #Cases >70% cell death.
Result string: 18

* * *

test system: relapsed AML cells; test: Drug sensitivity assay, 1,536-well, 3-day culture with individual approved drugs at 10 μM, viability by alamarBlue; assay type: cell-based, human; details: number of relapsed AML cases out of 18 tested with >70% cell death; 10 μM, 3-day culture
Counter-ions that a name gives are not always drawn.
quantity.name: #Cases >70% cell death
Please reply with the number alone, leaving off any unit.

Query string: Consider the compound Cn1cc(-c2[nH]c3cc(NC(=O)[C@H](N)C4CCCCC4)cc4c3c2C=NNC4=O)cn1 [PF-00477736] and give its measured #Cases >70% cell death.
Result string: 13

Query string: Consider the compound Cc1nnc(NS(=O)(=O)c2ccc(N)cc2)s1 [SULFAMETHIZOLE] and give its measured #Cases >70% cell death.
Result string: 18

Query string: Consider the compound CCCOc1ccc(C(=O)OCCN(CC)CC)cc1N [PROPARACAINE] and give its measured #Cases >70% cell death.
Result string: 1

Query string: Consider the compound CCOc1ccc2nc3cc(N)ccc3c(N)c2c1 [ETHACRIDINE LACTATE] and give its measured #Cases >70% cell death.
Result string: 2

Query string: Consider the compound CCC1=C[C@@H]2CN(C1)Cc1c([nH]c3ccccc13)[C@@](C(=O)OC)(c1cc3c(cc1OC)N(C)[C@H]1[C@@](O)(C(=O)OC)[C@H](OC(C)=O)[C@]4(CC)C=CCN5CC[C@]31[C@@H]54)C2 [VINORELBINE] and give its measured #Cases >70% cell death.
Result string: 16

Query string: Consider the compound CC[C@@H]([C@H](C)O)n1ncn(-c2ccc(N3CCN(c4ccc(OC[C@@H]5CO[C@@](Cn6cncn6)(c6ccc(F)cc6F)C5)cc4)CC3)cc2)c1=O [POSACONAZOLE] and give its measured #Cases >70% cell death.
Result string: 6

Query string: Consider the compound Cc1ccc2nc(N)[nH]c(=O)c2c1Sc1ccncc1 [NOLATREXED DIHYDROCHLORIDE] and give its measured #Cases >70% cell death.
Result string: 1

Query string: Consider the compound CC(C)(C)CC(C)(C)c1ccc(OCCOCC[N+](C)(C)Cc2ccccc2)cc1 [BENZETHONIUM CHLORIDE] and give its measured #Cases >70% cell death.
Result string: 16

Query string: Consider the compound Cc1cc(CC(C)CC(C)(C)C)n(O)c(=O)c1.NCCO (stereo not drawn) [PIROCTONE OLAMINE] and give its measured #Cases >70% cell death.
Result string: 13

Query string: Consider the compound CCC(=O)O[C@]1(C(=O)CCl)[C@@H](C)C[C@H]2[C@@H]3C[C@H](F)C4=CC(=O)C=C[C@]4(C)[C@@]3(F)[C@@H](O)C[C@@]21C [HALOBETASOL PROPIONATE] and give its measured #Cases >70% cell death.
Result string: 3

Query string: Consider the compound O=C(/C=C/c1cccnc1)NCCCCC1CCN(C(=O)c2ccccc2)CC1 [APO-866] and give its measured #Cases >70% cell death.
Result string: 17

Query string: Consider the compound CC1(C)CC[C@]2(C(=O)O)CC[C@]3(C)[C@H](C(=O)C=C4[C@@]5(C)C=C(C#N)C(=O)C(C)(C)[C@@H]5CC[C@]43C)[C@@H]2C1 [BARDOXOLONE] and give its measured #Cases >70% cell death.
Result string: 12

Query string: Consider the compound O=C(Nc1ccc(-c2ccnc(Nc3ccc(N4CCOCC4)cc3)n2)cc1)C1CCCN1 (stereo not drawn) [XL019] and give its measured #Cases >70% cell death.
Result string: 3

Query string: Consider the compound CC[C@@]1(O)C(=O)OCc2c1cc1n(c2=O)Cc2cc3c(CN(C)C)c(O)ccc3nc2-1 [TOPOTECAN] and give its measured #Cases >70% cell death.
Result string: 13

Query string: Consider the compound C#C[C@]1(O)CC[C@H]2[C@@H]3[C@H](C)CC4=C(CCC(=O)C4)[C@H]3CC[C@@]21C [TIBOLONE] and give its measured #Cases >70% cell death.
Result string: 1

These measurements were taken from patent US20210405025A1.
